Reference source for all entries: patent US9796711B2

For each record, write down the corresponding % Activation.
- EXPERIMENTAL SYSTEM: ΔF508-CFTR (Homo sapiens, UniProt P13569, DEL508-508)
- Construct: host or cells: CFBE41o-, doxycycline-inducible
- Sequence (P13569 with tags, fused parts or gaps DEL508-508): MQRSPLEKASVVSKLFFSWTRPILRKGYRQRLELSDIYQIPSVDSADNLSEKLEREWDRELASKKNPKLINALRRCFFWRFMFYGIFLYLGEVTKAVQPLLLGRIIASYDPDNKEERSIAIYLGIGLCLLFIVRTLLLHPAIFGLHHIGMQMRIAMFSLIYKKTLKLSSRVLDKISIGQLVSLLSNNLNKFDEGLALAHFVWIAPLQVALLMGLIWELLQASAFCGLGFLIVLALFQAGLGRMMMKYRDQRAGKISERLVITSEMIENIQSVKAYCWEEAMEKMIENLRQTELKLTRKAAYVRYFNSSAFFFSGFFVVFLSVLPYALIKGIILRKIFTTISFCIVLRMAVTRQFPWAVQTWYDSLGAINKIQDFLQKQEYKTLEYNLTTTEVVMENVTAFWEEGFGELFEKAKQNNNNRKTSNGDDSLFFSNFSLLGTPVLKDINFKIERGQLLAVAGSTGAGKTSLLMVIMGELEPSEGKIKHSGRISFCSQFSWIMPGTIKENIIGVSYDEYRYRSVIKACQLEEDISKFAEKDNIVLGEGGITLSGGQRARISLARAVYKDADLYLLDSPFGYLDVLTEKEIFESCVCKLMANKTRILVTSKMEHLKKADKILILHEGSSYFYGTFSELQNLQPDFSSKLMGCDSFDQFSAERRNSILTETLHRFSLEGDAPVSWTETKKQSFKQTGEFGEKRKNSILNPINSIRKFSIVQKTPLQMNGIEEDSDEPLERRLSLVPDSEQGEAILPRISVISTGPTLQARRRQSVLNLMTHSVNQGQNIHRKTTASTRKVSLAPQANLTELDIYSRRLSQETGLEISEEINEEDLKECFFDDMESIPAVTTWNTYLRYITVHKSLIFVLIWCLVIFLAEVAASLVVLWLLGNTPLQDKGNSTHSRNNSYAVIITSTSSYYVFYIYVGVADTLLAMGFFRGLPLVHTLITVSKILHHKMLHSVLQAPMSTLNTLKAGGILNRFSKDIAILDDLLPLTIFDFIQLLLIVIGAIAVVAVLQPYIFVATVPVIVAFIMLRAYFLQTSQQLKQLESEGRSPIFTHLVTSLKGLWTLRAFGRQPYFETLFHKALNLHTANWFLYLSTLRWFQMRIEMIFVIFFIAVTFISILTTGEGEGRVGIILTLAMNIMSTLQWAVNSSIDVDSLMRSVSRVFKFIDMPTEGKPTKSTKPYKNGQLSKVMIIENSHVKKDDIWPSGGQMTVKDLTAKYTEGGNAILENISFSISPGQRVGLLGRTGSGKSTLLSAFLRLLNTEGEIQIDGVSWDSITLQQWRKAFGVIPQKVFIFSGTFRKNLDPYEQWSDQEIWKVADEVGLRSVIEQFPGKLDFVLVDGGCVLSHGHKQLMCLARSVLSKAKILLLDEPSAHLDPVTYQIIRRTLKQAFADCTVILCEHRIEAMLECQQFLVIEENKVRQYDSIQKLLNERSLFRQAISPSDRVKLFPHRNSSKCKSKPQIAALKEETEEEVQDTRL
- PROTOCOL SUMMARY: CFTR cell surface levels using HRP-tagged ΔF508-CFTR expressing CFBE cells, intrinsic corrector capacity
- Type: cell-based
- CONDITION SET: HRP-tagged ΔF508-CFTR CFBE41o- cells, compounds alone (intrinsic corrector capacity), 20 hours at 33° C.; positive control 3 μM corrector
Report only the number, with the unit % understood.

q: # query: % Activation of entry Cc1nn(-c2ccccc2)c2nc(C(=O)O)cc(N3CCN(S(C)(=O)=O)CC3)c12
a: 8.92

q: Data request, read-out % Activation, for CC(C)c1nn(C2CCCCC2)c2nc(C(=O)O)cc(-c3ccc(N4CCCC(F)C4)nc3)c12 (centres unmarked)
a: 246.95

q: Requested field: % Activation. Item: Cc1nn(-c2ccnc(F)c2)c2nc(C(=O)O)cc(-c3ccc(N4CCOCC4)cc3)c12
a: 68.57

q: Reported % Activation, compound Cc1nn(-c2ccccc2)c2nc(C(=O)O)cc(N3CCCCC3=O)c12 : ____
a: 6.341

q: Would you mind telling me what % Activation value was observed for Cc1nn(-c2ccccc2)c2nc(C(=O)O)cc(N3CCN(CC#N)CC3)c12 ?
a: 40.405

q: Please look up its % Activation: Cc1nn(-c2ccccc2)c2nc(C(=O)O)cc(OC[C@@H](F)C3CCN(C)CC3)c12
a: 4.874

q: Name the recorded % Activation for Cc1nn(-c2ccccc2)c2nc(C(=O)O)cc(O[C@H]3C[C@@H](N4CCCCC4)C3)c12 .
a: 20.555

q: Which measured % Activation value corresponds to CC(=O)N1CCC(c2cc(C(=O)O)nc3c2c(C)nn3-c2ccccc2)CC1 ?
a: 12.11

----------
- EXPERIMENTAL SYSTEM: ΔF508-CFTR (Homo sapiens, UniProt P13569, DEL508-508)
- Construct: host or cells: CFBE41o-, doxycycline-inducible
- PROTOCOL SUMMARY: CFTR cell surface levels using HRP-tagged ΔF508-CFTR expressing CFBE cells, intrinsic corrector capacity
- Assay type: cell-based
- CONDITION SET: HRP-tagged ΔF508-CFTR expressing CFBE cells; intrinsic corrector capacity (no co-corrector); 33° C., 20 hours; read-out: EC50
Please respond with reported pEC50 for every item in the list.
For clarity, pEC50 is expressed as the negative log10 of concentration in mol/L.

q: What does the record list as pEC50 for CC1CN(c2cc(C(=O)O)nc3c2c(C2CCC2)nn3-c2ccccc2)C1 ?
a: 5.72

q: What value of pEC50 has been reported for the following compound? O=C(O)c1cc(OCCCN2CCCCC2)c2c(C3CCC3)nn(-c3ccccc3)c2n1
a: 5.48

q: Need pEC50, item O=C(O)c1cc(N2CCC(CN3CC[C@@H](F)C3)CC2)c2c(C3CCC3)nn(-c3ccccc3)c2n1
a: 6.82

q: # query: pEC50 of entry COCCN(C)C1CCN(c2cc(C(=O)O)nc3c2c(C2CCC2)nn3-c2ccc(F)cc2)CC1
a: 5.89

q: Request the reported pEC50 associated with O=C(O)c1cc(N2CCC3(C2)CC3(F)F)c2c(C3CCC3)nn(-c3ccccc3)c2n1 (stereo not shown)
a: 6.03

q: Entry COC(C)(C1CCN(c2cc(C(=O)O)nc3c2c(C2CCC2)nn3-c2ccccc2)CC1)C(F)(F)F (stereo not shown) has what pEC50?
a: 6.41

q: Which pEC50 is reported for this compound? COCCN1CCC2(CC1)CCN(c1cc(C(=O)O)nc3c1c(C1CCC1)nn3-c1ccc(F)cc1)CC2
a: 6.46

q: Item under review: CC1(COc2cc(C(=O)O)nc3c2c(C2CCC2)nn3-c2ccccc2)CC(F)(F)C1 . Reported pEC50?
a: 6.29

q: Endpoint output: pEC50 of O=C(O)c1cc(OCC2CCOCC2)c2c(C3CCC3)nn(-c3ccccc3)c2n1 . Value?
a: 6.26

q: Look at this compound and give its reported pEC50. CC(C)c1nn(-c2ccc(F)cc2)c2nc(C(=O)O)cc(N3CCC(N4CCN(C)CC4)CC3)c12
a: 5.99

q: Looking for the measured pEC50 of COCCOCC1(F)CCN(c2cc(C(=O)O)nc3c2c(C2CCC2)nn3-c2ccccc2)C1 (stereo not shown) , can you help?
a: 6.15

q: Would you mind telling me what pEC50 value was observed for O=C(O)c1cc(CN2CCC(N3CCOCC3)CC2)c2c(C3CCC3)nn(-c3ccc(F)cc3)c2n1 ?
a: 5.50

q: Look up pEC50 for this compound: O=C(O)c1cc(OCCN(C2CCCCC2)C2COC2)c2c(C3CCC3)nn(-c3ccccc3)c2n1
a: 6.52

q: Name the reported pEC50 value associated with the compound Cc1cc(N2CCN(c3cc(C(=O)O)nc4c3c(C3CCC3)nn4C3CCCCC3)CC2)ccn1
a: 6.00

q: Please report the recorded pEC50 for CCCN1CCN(c2cc(C(=O)O)nc3c2c(C(C)C)nn3-c2ccc(F)cc2)CC1 .
a: 5.78

q: Recorded pEC50 for CCN(CC)CCC1CCN(c2cc(C(=O)O)nc3c2c(C2CCC2)nn3-c2ccccc2)CC1 , please?
a: 5.97

q: Need pEC50 of CC(C)c1nn(-c2ccc(F)cc2)c2nc(C(=O)O)cc(N3CCCN(C)CC3)c12 , thanks.
a: 5.30

q: Endpoint output: pEC50 of COC[C@@H]1CCN(CC2CCN(c3cc(C(=O)O)nc4c3c(C3CCC3)nn4-c3ccccc3)CC2)C1 . Value?
a: 6.34

q: pEC50 lookup needed for CN(C[C@@H]1CCN(c2cc(C(=O)O)nc3c2c(C2CCC2)nn3-c2ccccc2)C1)C(=O)OC(C)(C)C , thanks.
a: 6.28

q: Field request: pEC50 | item: CC1(F)CN(c2cc(C(=O)O)nc3c2c(C2CCC2)nn3-c2ccccc2)C1
a: 5.89

q: Need pEC50 of CN(c1cc(C(=O)O)nc2c1c(C1CCC1)nn2-c1ccccc1)[C@H]1C[C@@H](OC(C)(C)C)C1 , thanks.
a: 5.95

q: Request the reported pEC50 associated with CCOCC1(F)CCN(c2cc(C(=O)O)nc3c2c(C2CCC2)nn3-c2ccccc2)C1 (stereo not shown)
a: 5.95

q: # query: pEC50 of entry O=C(O)c1cc(N2CCC(N3CCN(C4COC4)CC3)CC2)c2c(C3CCC3)nn(-c3ccc(F)cc3)c2n1
a: 5.51

q: # get_value(readout='pEC50', item= O=C(O)c1cc(N2CC3(CCCC3)C2)c2c(C3CCC3)nn(-c3ccccc3)c2n1 )
a: 6.04

q: Would you mind telling me what pEC50 value was observed for O=C(O)c1cc(N2CCC(F)CC2)c2c(C3CCC3)nn(-c3ccccc3)c2n1 ?
a: 5.96

q: Give its pEC50 value. Item: CC(=O)N1CCC(Oc2cc(C(=O)O)nc3c2c(C2CCC2)nn3-c2ccccc2)CC1
a: 5.48

q: Quick check: pEC50 of CN(c1cc(C(=O)O)nc2c1c(C1CCC1)nn2-c1ccccc1)[C@H]1C[C@@H](O)C1 ?
a: 5.49

q: Using the record for O=C(O)c1cc(N2CCC3C(CCN3C3CCC3)C2)c2c(C3CCC3)nn(-c3ccc(F)cc3)c2n1 (stereo not shown) , report its pEC50.
a: 7.06

q: So what's the measured pEC50 for this one? COCC1CCN(c2cc(C(=O)O)nc3c2c(C(C)C)nn3C2CCCCC2)CC1
a: 6.27

q: I would be grateful if you could share the reported pEC50 for O=C(O)c1cc(N2CCC(N3CCC(O)CC3)CC2)c2c(C3CCC3)nn(-c3ccc(F)cc3)c2n1 .
a: 5.49
